# RUN DESCRIPTION: Stability of QC samples in rat plasma (24 h, freeze-thaw, 4 weeks)
# Format: in vitro ADME
# MEASUREMENT CONTEXT: low concentration level (3-30 ng·mL^−1), stored at −80°C for 4 weeks, six replicates
METRIC NAME: Long stability Remain (%)

{"COMPOUND": "O=c1c(O[C@@H]2O[C@H](CO)[C@@H](O)[C@H](O)[C@H]2O)c(-c2ccc(O)c(O)c2)oc2cc(O)cc(O)c12", "Long stability Remain (%)": 92.0}
{"COMPOUND": "C=C1[C@H](OC(=O)/C=C(\\C)CC)C[C@@H](C(C)C)[C@@H]2[C@@H]([C@@H](C)OC(C)=O)C(=O)C[C@@H]12", "Long stability Remain (%)": 101}
{"COMPOUND": "O=C(/C=C/c1ccc(O)c(O)c1)O[C@@H]1C[C@](O)(C(=O)O)C[C@@H](O)[C@H]1O", "Long stability Remain (%)": 114}
{"COMPOUND": "O=C(/C=C/c1ccc(O)c(O)c1)O[C@H]1[C@H](O)C[C@](O)(C(=O)O)C[C@H]1O", "Long stability Remain (%)": 97.5}
{"COMPOUND": "O=C(O)/C=C/c1ccc(O)c(O)c1", "Long stability Remain (%)": 113}
{"COMPOUND": "O=C(C=Cc1ccc(O)c(O)c1)OC1CC(O)(C(=O)O)CC(O)C1OC(=O)C=Cc1ccc(O)c(O)c1 (stereo not shown)", "Long stability Remain (%)": 102}
{"COMPOUND": "C[C@@H]1O[C@@H](OC[C@H]2O[C@@H](Oc3c(-c4ccc(O)c(O)c4)oc4cc(O)cc(O)c4c3=O)[C@H](O)[C@@H](O)[C@@H]2O)[C@H](O)[C@H](O)[C@H]1O", "Long stability Remain (%)": 97.0}

* * *

# RUN DESCRIPTION: Stability of QC samples in rat plasma (24 h, freeze-thaw, 4 weeks)
# Type: in vitro ADME
# MEASUREMENT CONTEXT: high concentration level (3000-30000 ng·mL^−1), 24 hours at 20°C, six replicates
METRIC NAME: 24 h stability Remain (%)

{"COMPOUND": "O=C(C=Cc1ccc(O)c(O)c1)OC1CC(O)(C(=O)O)CC(O)C1OC(=O)C=Cc1ccc(O)c(O)c1 (centres unmarked)", "READOUT NUMBER": 97.6}
{"COMPOUND": "C=C1[C@H](OC(=O)/C=C(\\C)CC)C[C@@H](C(C)C)[C@@H]2[C@@H]([C@@H](C)OC(C)=O)C(=O)C[C@@H]12", "READOUT NUMBER": 95.0}
{"COMPOUND": "O=C(O)/C=C/c1ccc(O)c(O)c1", "READOUT NUMBER": 90.7}
{"COMPOUND": "O=C(/C=C/c1ccc(O)c(O)c1)O[C@H]1[C@H](O)C[C@](O)(C(=O)O)C[C@H]1O", "READOUT NUMBER": 112}
{"COMPOUND": "O=c1c(O[C@@H]2O[C@H](CO)[C@@H](O)[C@H](O)[C@H]2O)c(-c2ccc(O)c(O)c2)oc2cc(O)cc(O)c12", "READOUT NUMBER": 113}

* * *

# RUN DESCRIPTION: Stability of QC samples in rat plasma (24 h, freeze-thaw, 4 weeks)
# Format: in vitro ADME
# MEASUREMENT CONTEXT: medium concentration level (100-1000 ng·mL^−1), freeze-thaw cycles −20°C to 20°C, six replicates
# Protocol: Stock solution of 10 analytical compounds (1.00 mg·mL^−1) and three internal standards (ISs) was dissolved in methanol and placed in the refrigerator before testing. […] In the stability test, 24-hour stability (The samples were placed for 24 hours at 20°C and then measured), freeze-thaw cycles (The sample was injected after the temperature changing from −20°C to 20°C), and 4 weeks stability (The sample was determined after stored at −80°C for 4 weeks) of representative QC samples were all tested. […]
METRIC NAME: Freeze-thaw stability, percent remaining (%)

{"MOLECULE": "O=C(/C=C/c1ccc(O)c(O)c1)O[C@@H]1C[C@](O)(C(=O)O)C[C@@H](O)[C@H]1O", "METRIC NAME": "Freeze-thaw stability, percent remaining", "READOUT NUMBER": 88.7}
{"MOLECULE": "C=C1[C@H](OC(=O)/C=C(\\C)CC)C[C@@H](C(C)C)[C@@H]2[C@@H]([C@@H](C)OC(C)=O)C(=O)C[C@@H]12", "METRIC NAME": "Freeze-thaw stability, percent remaining", "READOUT NUMBER": 115}
{"MOLECULE": "O=C(C=Cc1ccc(O)c(O)c1)OC1CC(O)(C(=O)O)CC(O)C1OC(=O)C=Cc1ccc(O)c(O)c1 (stereo not shown)", "METRIC NAME": "Freeze-thaw stability, percent remaining", "READOUT NUMBER": 98.6}
{"MOLECULE": "O=C(/C=C/c1ccc(O)c(O)c1)O[C@H]1[C@H](O)C[C@](O)(C(=O)O)C[C@H]1O", "METRIC NAME": "Freeze-thaw stability, percent remaining", "READOUT NUMBER": 82.9}
{"MOLECULE": "O=C(/C=C/c1ccc(O)c(O)c1)O[C@@H]1C[C@@](O)(C(=O)O)C[C@@H](O)[C@@H]1O", "METRIC NAME": "Freeze-thaw stability, percent remaining", "READOUT NUMBER": 82.9}
{"MOLECULE": "O=C(O)/C=C/c1ccc(O)c(O)c1", "METRIC NAME": "Freeze-thaw stability, percent remaining", "READOUT NUMBER": 87.2}
{"MOLECULE": "O=c1c(O[C@@H]2O[C@H](CO)[C@@H](O)[C@H](O)[C@H]2O)c(-c2ccc(O)c(O)c2)oc2cc(O)cc(O)c12", "METRIC NAME": "Freeze-thaw stability, percent remaining", "READOUT NUMBER": 111}

* * *

# RUN DESCRIPTION: Pharmacokinetic study in rats after intragastric administration of Farfarae Flos extract (plasma, LC-MS/MS)
# Type: in vivo
# MEASUREMENT CONTEXT: male; rat plasma, oral Farfarae Flos extract 7.8 g·kg^−1, mean ± SD; read-out: MRT(0–∞)
METRIC NAME: MRT inf (h)

1. O=C(/C=C/c1ccc(O)c(O)c1)O[C@@H]1C[C@](O)(C(=O)O)C[C@@H](O)[C@H]1O
2. O=C(/C=C/c1ccc(O)c(O)c1)O[C@@H]1C[C@@](O)(C(=O)O)C[C@@H](O)[C@@H]1O
3. O=C(O)/C=C/c1ccc(O)c(O)c1
Consider the compounds listed above. Rank them by MRT inf in ascending numerical order. Give your ranking as a list of the labels in the requested order.
1, 2, 3

Values compiled from paper PMC8970883.
